# assay.method.text: Solubility
# Type: physicochemical
# condition.label: 10% albumin saline with detergent; 1.0 mL 10% albumin in saline with 0.01 mL detergent; read-out: Solubility: amount dissolved in 1.0 mL
reported.property: solubility

So what's the measured solubility for this one? CC/C=C\C/C=C\C/C=C\C/C=C\C/C=C\C/C=C\CCC(=O)OCC[N+](C)(C)C [DHA-choline, Docosahexaenoyl Choline Iodide]
7800 µg/mL
